Taken from PubChem BioAssay AID778.

- TARGET UNDER TEST: Cytochrome P450 2C19 (Homo sapiens) (UniProt P33261)
- Sequence (P33261 whole entry, looked up): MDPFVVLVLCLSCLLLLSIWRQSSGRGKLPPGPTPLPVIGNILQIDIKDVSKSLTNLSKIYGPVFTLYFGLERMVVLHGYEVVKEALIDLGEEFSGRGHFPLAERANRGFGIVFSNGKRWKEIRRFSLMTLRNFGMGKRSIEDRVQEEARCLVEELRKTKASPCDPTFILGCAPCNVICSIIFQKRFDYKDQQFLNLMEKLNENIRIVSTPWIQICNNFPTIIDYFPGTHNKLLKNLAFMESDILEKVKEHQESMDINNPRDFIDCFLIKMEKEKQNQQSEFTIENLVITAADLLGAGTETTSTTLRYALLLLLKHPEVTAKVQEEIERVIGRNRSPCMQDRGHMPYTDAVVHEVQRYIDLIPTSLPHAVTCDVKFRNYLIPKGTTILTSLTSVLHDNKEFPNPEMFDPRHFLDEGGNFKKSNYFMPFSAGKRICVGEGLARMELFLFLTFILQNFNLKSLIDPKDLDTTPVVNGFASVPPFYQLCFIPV
- ASSAY COMMENT: blockers of cytochrome P450 2C19 activity – biochemical, luminescence, ADME assay, primary screen (AID 778);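 note: plate controls were negative control wells for no effect and 2.5 mM tranylcypromine positive control for full effect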
- APPLIED CONDITIONS: CYP2C19 Supersomes, luciferin-H EGE luminescence, 30 min; at 5 µM; stronger effect = higher value
About 20,000 (21%) of roughly 96,000 compounds were called active. The list is a sample of the results.
Label 1 when inhibition is at or above 10%; anything below gets -1.

COMPOUND | TARGET UNDER TEST | GROUP
CCOC(=O)C1CCCN(Cc2nc(N)nc(Nc3ccc(C)cc3)n2)C1 (stereo not drawn) | Cytochrome P450 2C19 (Homo sapiens) (UniProt P33261) | -1
COC(=O)c1cc(Cl)c(NC(=O)c2ccco2)cc1OC | Cytochrome P450 2C19 (Homo sapiens) (UniProt P33261) | -1
CCOC(=O)C1CCCN(C(=O)C2CCN(c3nnc(-n4cccc4)s3)CC2)C1 (stereo not drawn) | Cytochrome P450 2C19 (Homo sapiens) (UniProt P33261) | -1
CCSc1nnc(NC(=O)c2ccc(C)cc2)s1 | Cytochrome P450 2C19 (Homo sapiens) (UniProt P33261) | 1
CCOC(=O)C1CCCN(C(=O)c2ccc(CS(=O)(=O)c3ccc(Br)cc3)o2)C1 (stereo not drawn) | Cytochrome P450 2C19 (Homo sapiens) (UniProt P33261) | 1
CN(C)/C=C(/C(=O)c1ccc(Cl)cc1)S(=O)(=O)c1ccccc1 | Cytochrome P450 2C19 (Homo sapiens) (UniProt P33261) | 1
O=C(CN1C(=O)CSc2ncccc21)N1CCOCC1 | Cytochrome P450 2C19 (Homo sapiens) (UniProt P33261) | 1
COCCCn1c(CCC(=O)O)ccc1-c1ccc(F)cc1 | Cytochrome P450 2C19 (Homo sapiens) (UniProt P33261) | 1
Cc1c(-c2ccccc2)cn2c1-c1ccc(C)n1CC2 | Cytochrome P450 2C19 (Homo sapiens) (UniProt P33261) | -1
COC(=O)Cc1cc(=O)oc2c(C)c(O)ccc12 | Cytochrome P450 2C19 (Homo sapiens) (UniProt P33261) | 1
CC(C)N1C(=O)C2C(C(=O)NC3CCCCC3)C3C=CC2(O3)C1C(=O)NC1CCCC1 (stereo not drawn) | Cytochrome P450 2C19 (Homo sapiens) (UniProt P33261) | -1
COCCCNC(=O)c1c(F)c(F)c(F)c(F)c1F | Cytochrome P450 2C19 (Homo sapiens) (UniProt P33261) | -1
CSc1ccc(Cl)c(C(=O)OCC(=O)N2CC(C)OC(C)C2)c1 (stereo not drawn) | Cytochrome P450 2C19 (Homo sapiens) (UniProt P33261) | 1
CC(CNc1ccc([N+](=O)[O-])cc1)NC(=O)c1ccccc1Br (stereo not drawn) | Cytochrome P450 2C19 (Homo sapiens) (UniProt P33261) | 1
COc1cc(OC)c(/C=N/NC(=O)c2ccc([N+](=O)[O-])cc2)cc1Br | Cytochrome P450 2C19 (Homo sapiens) (UniProt P33261) | -1
CC(C)NC(=O)c1ccccc1S(=O)c1ccccc1C#N (stereo not drawn) | Cytochrome P450 2C19 (Homo sapiens) (UniProt P33261) | -1
Cc1ccc(NC(=O)Nc2ccc3oc(C)nc3c2)cc1 | Cytochrome P450 2C19 (Homo sapiens) (UniProt P33261) | -1
CC(=O)N1C(=O)C2(Nc3ccccc3N2)c2ccccc21 | Cytochrome P450 2C19 (Homo sapiens) (UniProt P33261) | -1
O=C(Cn1c(-c2cncs2)nc2ccccc21)NC1CCCC1 | Cytochrome P450 2C19 (Homo sapiens) (UniProt P33261) | 1
O=C(NCc1ccc2c(c1)OCO2)c1cc2c(s1)CS(=O)(=O)C2 | Cytochrome P450 2C19 (Homo sapiens) (UniProt P33261) | 1
O=C(Cn1c(-c2ccccn2)nc2ccccc21)NCCN1CCOCC1 | Cytochrome P450 2C19 (Homo sapiens) (UniProt P33261) | 1
COc1ccccc1CNC(=O)CCCn1c(=O)c2ccccc2n(CC(=O)NC2CCCC2)c1=O | Cytochrome P450 2C19 (Homo sapiens) (UniProt P33261) | 1
CCOC(=O)C1CCCN(C(=O)c2cncc(Br)c2)C1 (stereo not drawn) | Cytochrome P450 2C19 (Homo sapiens) (UniProt P33261) | 1
